Reference source for all entries: patent US8481502B2

# System: P. aeruginosa ATCC 27853 (APAE001)
# run_description: MIC assay, CLSI broth microdilution, APAE001
# Type: cell-based
# condition_label: Pseudomonas aeruginosa; APAE001 is ATCC27853; Mueller Hinton Broth, 35 C, 20 hours
quantity_name: MIC

Answered examples (3):
1) NC[C@@H]1C[C@@H](O)[C@@H](N)[C@@H](O[C@H]2[C@H](O[C@@H]3O[C@H](CO)[C@@H](O[C@H]4O[C@@H](CN)[C@@H](O)[C@H](O)[C@H]4N)[C@H]3O)[C@@H](O)[C@H](NC(=O)[C@@H](O)C(F)(F)CN)C[C@@H]2N)O1: ≤ 1 µg/mL
2) NC[C@@H]1C[C@@H](O)[C@@H](N)[C@@H](O[C@H]2[C@H](O[C@@H]3O[C@H](CO)[C@@H](O[C@H]4O[C@@H](CN)[C@@H](O)[C@H](O)[C@H]4N)[C@H]3O)[C@@H](O)[C@H](NC(=O)[C@@H](O)[C@H](F)CN)C[C@@H]2N)O1: ≤ 1 µg/mL
3) NC[C@@H]1O[C@H](O[C@H]2[C@@H](O)[C@H](O[C@@H]3[C@@H](O)[C@H](NC(=O)[C@@H](O)[C@@H](O)CN)C[C@H](N)[C@H]3O[C@H]3O[C@H](CN)[C@@H](O)C[C@H]3N)O[C@@H]2CO)[C@H](N)[C@@H](O)[C@@H]1O: ≤ 1 µg/mL

Next:
**Q:** Identify MIC associated with the molecule `NC[C@@H]1O[C@H](O[C@H]2[C@@H](O)[C@H](O[C@@H]3[C@@H](O)[C@H](NC(=O)[C@@H](O)C(F)(F)CN)C[C@H](N)[C@H]3O[C@H]3O[C@H](CN)[C@@H](O)C[C@H]3N)O[C@@H]2CO)[C@H](N)[C@@H](O)[C@@H]1O`
**A:** ≤ 1 µg/mL
